Biological target: D3 (Homo sapiens, UniProt P35462)
Sequence (P35462 whole entry): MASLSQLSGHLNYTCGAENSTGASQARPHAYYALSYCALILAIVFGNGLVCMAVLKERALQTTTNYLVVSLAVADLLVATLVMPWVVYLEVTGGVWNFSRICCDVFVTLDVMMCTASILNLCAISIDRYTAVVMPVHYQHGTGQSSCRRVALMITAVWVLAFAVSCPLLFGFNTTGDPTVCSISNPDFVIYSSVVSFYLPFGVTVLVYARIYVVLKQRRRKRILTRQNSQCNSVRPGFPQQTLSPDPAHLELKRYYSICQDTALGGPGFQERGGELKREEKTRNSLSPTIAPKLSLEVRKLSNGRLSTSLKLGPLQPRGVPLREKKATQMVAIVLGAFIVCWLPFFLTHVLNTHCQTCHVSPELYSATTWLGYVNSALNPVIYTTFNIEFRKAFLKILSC
Experiment: functional pKi (fpKi) at D3, comparison of separated enantiomers
Format: biochemical
Settings: difference in fpKi between the two separated enantiomers of the same example
value type: fpKi (D3) higher than the other enantiomer

Prompt: Requested read-out: fpKi (D3) higher than the other enantiomer. Entry: Cc1ccc2c(-c3nnc(SCCCN4C[C@@H]5C[C@]5(c5ccc(C(C)(C)C)cc5)C4)n3C)cccc2n1 (single isomer, unassigned) [Example 5 Enantiomer 2]
Response: > 0.9 log-unit

----------
Let's look at some molecules and their measured fpKi (D3) higher than the other enantiomer.
Biological target: D3 (Homo sapiens)
Assay: functional pKi (fpKi) at D3, comparison of separated enantiomers
Assay type: biochemical
Conditions: difference in fpKi between the two separated enantiomers of the same example

Record excerpt, results attached:
{"molecule": "Cc1ncoc1-c1nnc(SCCCN2C[C@@H]3C[C@]3(c3ccc(Cl)cc3)C2)n1C (single isomer, unassigned) [Example 20 Enantiomer 1]", "test target": "D3 (Homo sapiens)", "recorded measurement": "> 1 log-unit"}
{"molecule": "Cc1ccc2c(-c3nnc(SCCCN4C[C@@H]5C[C@]5(c5ccc(Cl)c(Cl)c5)C4)n3C)cccc2n1 (single isomer, unassigned) [Example 4 Enantiomer 1]", "test target": "D3 (Homo sapiens)", "recorded measurement": "> 0.6 log-unit"}

Now look at this entry.
Prompt: Requested read-out: fpKi (D3) higher than the other enantiomer. Entry: Cc1ccc2c(-c3nnc(SCCCN4C[C@@H]5C[C@]5(c5ccc(Br)cc5)C4)n3C)cccc2n1 (single isomer, unassigned) [Example 2 Enantiomer 2]
Response: > 1 log-unit
